Target: HLA B*3501 (Homo sapiens, UniProt P01889, A329T/A93T/A95T/C349S/D201E/D98Y/E176V/E187L/E204Q/E69T/I218V/K202T/L119I/Q94N/R155S/R180L/S121R/S35A/S48A/T118I/V127L/V306I/V36M/Y140S/Y91F)
Assay: biochemical
Ends that are not written are not given here.
Value Kind: IC50 (nM)
The reply should contain only the number, in nM.

Task: Which value of IC50 has been reported for HPGSVNEFDF [HF10] in the records?
Output: 2090

###

Biological target: HLA B*5401 (Homo sapiens, UniProt P01889, A329T/C349S/D138N/D201E/E176V/E187T/E204Q/E69G/I76V/K202T/L119W/R155S/R180L/S121T/S35A/S48A/V127L/V306I/V36M/Y140L)
Assay: biochemical
Ends that are not written are not given here.
Value Kind: IC50 (nM)
Your answer is read as nM, so omit the unit and give the number.

Task: What IC50 value was documented for this sequence, HPGSVNEFDF [HF10] ?
Output: 854

###

Target: HLA B*4201 (Homo sapiens, UniProt P01889, D138N/E176V/E187T/K202T/R180D)
Assay: biochemical
Ends that are not written are not given here.
Value Kind: pIC50
// returns pIC50 (minus log10 of molar concentration), number only

Task: Given the entry HPGSVNEFDF [HF10] , report its measured pIC50.
Output: 6.06

###

Molecular target: HLA B*5101 (Homo sapiens, UniProt P01889, A329T/A93T/A95T/C349S/D138N/D201E/D98Y/E187L/E204Q/E69T/G107R/I218V/K202T/L105A/L119W/N104I/Q94N/R106L/R155S/R180L/S101N/S121T/S35A/S48A/V306I/V36M/Y195H/Y91F)
Assay: biochemical
Ends that are not written are not given here.
Value Kind: IC50 (µM)
Just the number please, in µM, no unit attached.

Task: Fill in: IC50 of HPGSVNEFDF [HF10] is ___
Output: 14.7
